Reported IC50 values for the following molecules.
Biological target: Human RAR-related Orphan Receptor Gamma (RORγ) (Homo sapiens)
Sequence (P51449 269-508 limits assumed): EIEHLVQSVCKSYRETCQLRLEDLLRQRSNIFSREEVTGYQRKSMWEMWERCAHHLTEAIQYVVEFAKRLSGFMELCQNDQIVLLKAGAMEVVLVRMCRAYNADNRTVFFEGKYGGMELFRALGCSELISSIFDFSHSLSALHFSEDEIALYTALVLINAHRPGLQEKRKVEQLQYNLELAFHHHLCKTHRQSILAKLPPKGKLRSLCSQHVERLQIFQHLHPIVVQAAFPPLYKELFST
Assay: RORγ assay (GAL4-RORγ hybrid luciferase reporter, Indigo Biosciences)
Details: inverse-agonist activity, GAL4-RORγ reporter cells, 23 hours
Write the answer as a number in nM, unit excluded.

## Input Record request: IC50 value, item C[C@H]1C(=O)C(C#N)=C[C@@]2(C)c3nn(C4CCS(=O)(=O)C4)c(-c4ccccc4)c3CC[C@H]12 (stereo partly shown) [T30]
## Output 143

====

IC50 reference
molecular target: UniProtKB P51449; assay: RORγ assay (GAL4-RORγ hybrid luciferase reporter, Indigo Biosciences); settings: inverse-agonist activity, GAL4-RORγ reporter cells, 23 hours

// known answers, use as guide
[[record]]
compound = "C[C@H]1C(=O)C(C#N)=C[C@@]2(C)c3c(c(-c4ccccc4)nn3-c3ccc(C(=O)O)cc3)CC[C@H]12 [T52]"
test_system = "UniProtKB P51449"
assay_value = "> 2000 nM"

[[record]]
compound = "Cc1ccc(-n2nc(-c3ccccc3)c3c2[C@]2(C)C=C(C#N)C(=O)[C@H](C)[C@H]2CC3)nc1 [T31]"
test_system = "UniProtKB P51449"
assay_value = "91 nM"


## Input Would you mind telling me what IC50 value was observed for Cc1noc(-c2ccc(-n3nc(-c4cccnc4)c4c3[C@]3(C)C=C(C#N)C(=O)[C@H](C)[C@H]3CC4)cc2)n1 [T107] ?
## Output 112 nM

## Input Also check C[C@H]1C(=O)C(C#N)=C[C@@]2(C)c3c(c(-c4ccncn4)nn3-c3ccc(-c4cccc(CO)c4)cn3)CC[C@H]12 [T60]
## Output 101 nM

## Input And the next one, CNc1nn(-c2ccc(-c3ccccc3)cc2)c2c1CC[C@@H]1[C@@H](C)C(=O)C(C#N)=C[C@@]21C [T79] ?
## Output 140 nM

## Input Now this one: C[C@H]1C(=O)C(C#N)=C[C@@]2(C)c3nn(-c4ccc(-c5ccccc5)cc4)c(-c4ccccc4F)c3CC[C@H]12 [T123]
## Output 139 nM

## Input Lookup C[C@H]1C(=O)C(C#N)=C[C@@]2(C)c3c(c(-c4ccccc4)nn3-c3ccc(-c4cccc(F)c4)cc3)CC[C@H]12 [T40]
## Output 80 nM

====

target: Human RAR-related Orphan Receptor Gamma (RORγ) (Homo sapiens, UniProt P51449); test: RORγ assay (GAL4-RORγ hybrid luciferase reporter, Indigo Biosciences); settings: inverse-agonist activity, GAL4-RORγ reporter cells, 23 hours
pIC50: −log10 of the molar value.
Label YES when pIC50 is at or above 7; otherwise label NO.

These solved cases illustrate the format of a correct answer.
[[record]]
molecule = "C[C@H]1C(=O)C(C#N)=C[C@@]2(C)c3c(c(-c4ccccc4)nn3C3CCS(=O)(=O)C3)CC[C@H]12 (some centres unmarked) [T29]"
class_label = "NO"

[[record]]
molecule = "Cc1cc(-c2ccc(-n3nc(-c4ccc(F)cc4)c4c3[C@]3(C)C=C(C#N)C(=O)[C@H](C)[C@H]3CC4)cc2)cnn1 [T177]"
class_label = "YES"

[[record]]
molecule = "Cc1ccc(-n2nc(-c3ccccc3)c3c2[C@]2(C)C=C(C#N)C(=O)[C@H](C)[C@H]2CC3)cc1 [T12]"
class_label = "YES"

[[record]]
molecule = "C[C@H]1C(=O)C(C#N)=C[C@@]2(C)c3c(c(-c4cccnc4)nn3-c3nc4ccccc4s3)CC[C@H]12 [T99]"
class_label = "NO"


## Input Test whether the molecule C[C@H]1C(=O)C(C#N)=C[C@@]2(C)c3nc(C4CCOCC4)n(-c4cccc(F)c4)c3CC[C@H]12 [T130] records pIC50 of 7 or higher.
## Output NO
